assayed_system: Tyrosine-protein kinase Fgr (Homo sapiens);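 note: reported values are mean percent inhibition of FGR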
run_conditions: at 0.1 µM
test_readout: inhibition (%)
API: value field is a number in %; no unit string.

// worked examples, inhibition included
{"smiles_structure": "CCCN(CCS(C)(=O)=O)Cc1ccc(-c2ccc3ncnc(Nc4ccc(OCc5cccc(F)c5)c(Cl)c4)c3c2)o1", "inhibition (%)": 3.69}
{"smiles_structure": "COC(=O)Nc1nc2ccc(S(=O)(=O)c3ccc(NC(=O)Nc4cc(C(F)(F)F)ccc4F)cc3)cc2[nH]1", "inhibition (%)": 0.25}

# evaluate next
Just so you know, measured inhibition for `COc1ccc(-c2nn3ncccc3c2-c2ccnc(Nc3ccc4c(c3)OCCO4)n2)cc1` came out at 47.9

* * *

assayed_system: Ribosomal protein S6 kinase alpha-6 (Homo sapiens) (UniProt Q9UK32);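 note: each value is a mean inhibition of RSK4 from a GSK PKIS panel screen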
Sequence (Q9UK32 whole entry): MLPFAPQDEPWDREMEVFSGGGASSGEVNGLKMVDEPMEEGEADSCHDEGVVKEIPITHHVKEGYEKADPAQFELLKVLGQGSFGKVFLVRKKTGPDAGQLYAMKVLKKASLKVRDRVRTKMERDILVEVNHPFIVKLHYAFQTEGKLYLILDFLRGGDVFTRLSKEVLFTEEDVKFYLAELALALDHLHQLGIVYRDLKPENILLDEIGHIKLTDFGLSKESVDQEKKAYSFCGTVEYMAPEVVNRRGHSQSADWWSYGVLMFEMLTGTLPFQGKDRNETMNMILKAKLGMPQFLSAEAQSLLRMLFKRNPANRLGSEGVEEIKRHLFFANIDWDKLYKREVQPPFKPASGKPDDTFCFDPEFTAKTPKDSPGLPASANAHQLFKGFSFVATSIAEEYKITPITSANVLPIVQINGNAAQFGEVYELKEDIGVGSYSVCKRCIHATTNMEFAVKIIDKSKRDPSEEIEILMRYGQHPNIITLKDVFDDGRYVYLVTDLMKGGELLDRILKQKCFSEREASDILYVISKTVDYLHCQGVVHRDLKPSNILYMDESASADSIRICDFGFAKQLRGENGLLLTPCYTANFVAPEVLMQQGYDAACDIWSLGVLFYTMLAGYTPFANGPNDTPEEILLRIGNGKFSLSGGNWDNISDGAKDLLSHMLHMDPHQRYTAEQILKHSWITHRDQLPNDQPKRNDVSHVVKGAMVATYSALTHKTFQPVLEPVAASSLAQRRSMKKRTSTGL
run_conditions: at 1 µM
test_readout: inhibition (%)
API: value field is a number in %; no unit string.

// worked examples, inhibition included
{"smiles_structure": "Nc1ncc(-c2cccc(S(N)(=O)=O)c2)c2scc(-c3ccc(F)c(Cl)c3)c12", "display_unit": "%", "inhibition": 3.24}
{"smiles_structure": "CC(=O)Nc1cccc(C#Cc2cncnc2Nc2ccc(OCc3cccc(F)c3)c(Cl)c2)c1", "display_unit": "%", "inhibition": 1.39}

Just so you know, measured inhibition for `CCNC(=O)O[C@H]1CN[C@H](C#Cc2cc3ncnc(Nc4ccc(OCc5cccc(F)c5)c(Cl)c4)c3s2)C1` came out at 2.88

Just so you know, measured inhibition for `COc1cccc(-n2ncc3c(N/N=C/c4ccc(F)cc4)ncnc32)c1` came out at 1.84

Just so you know, measured inhibition for `NS(=O)(=O)c1ccc(Nc2ncc(-c3ccccc3)o2)cc1` came out at 4.32

Just so you know, measured inhibition for `CNC(=O)c1cc(-c2ccc(F)cc2)cc(-c2ccc(S(=O)(=O)N3CCCC3)cc2)c1N` came out at 1.28

Just so you know, measured inhibition for `COc1cc2c(cc1Nc1nc(Nc3ccsc3C(N)=O)c3cc[nH]c3n1)N(C(=O)CN(C)C)CCC2(C)C` came out at 49.6

Just so you know, measured inhibition for `CNC(=O)c1cccc(C#Cc2cncnc2Nc2ccc(OCc3cccc(F)c3)c(Cl)c2)c1` came out at 0.05

* * *

System: Epidermal growth factor receptor (Homo sapiens), P00533 [L861Q]
Sequence (P00533 whole entry L861Q): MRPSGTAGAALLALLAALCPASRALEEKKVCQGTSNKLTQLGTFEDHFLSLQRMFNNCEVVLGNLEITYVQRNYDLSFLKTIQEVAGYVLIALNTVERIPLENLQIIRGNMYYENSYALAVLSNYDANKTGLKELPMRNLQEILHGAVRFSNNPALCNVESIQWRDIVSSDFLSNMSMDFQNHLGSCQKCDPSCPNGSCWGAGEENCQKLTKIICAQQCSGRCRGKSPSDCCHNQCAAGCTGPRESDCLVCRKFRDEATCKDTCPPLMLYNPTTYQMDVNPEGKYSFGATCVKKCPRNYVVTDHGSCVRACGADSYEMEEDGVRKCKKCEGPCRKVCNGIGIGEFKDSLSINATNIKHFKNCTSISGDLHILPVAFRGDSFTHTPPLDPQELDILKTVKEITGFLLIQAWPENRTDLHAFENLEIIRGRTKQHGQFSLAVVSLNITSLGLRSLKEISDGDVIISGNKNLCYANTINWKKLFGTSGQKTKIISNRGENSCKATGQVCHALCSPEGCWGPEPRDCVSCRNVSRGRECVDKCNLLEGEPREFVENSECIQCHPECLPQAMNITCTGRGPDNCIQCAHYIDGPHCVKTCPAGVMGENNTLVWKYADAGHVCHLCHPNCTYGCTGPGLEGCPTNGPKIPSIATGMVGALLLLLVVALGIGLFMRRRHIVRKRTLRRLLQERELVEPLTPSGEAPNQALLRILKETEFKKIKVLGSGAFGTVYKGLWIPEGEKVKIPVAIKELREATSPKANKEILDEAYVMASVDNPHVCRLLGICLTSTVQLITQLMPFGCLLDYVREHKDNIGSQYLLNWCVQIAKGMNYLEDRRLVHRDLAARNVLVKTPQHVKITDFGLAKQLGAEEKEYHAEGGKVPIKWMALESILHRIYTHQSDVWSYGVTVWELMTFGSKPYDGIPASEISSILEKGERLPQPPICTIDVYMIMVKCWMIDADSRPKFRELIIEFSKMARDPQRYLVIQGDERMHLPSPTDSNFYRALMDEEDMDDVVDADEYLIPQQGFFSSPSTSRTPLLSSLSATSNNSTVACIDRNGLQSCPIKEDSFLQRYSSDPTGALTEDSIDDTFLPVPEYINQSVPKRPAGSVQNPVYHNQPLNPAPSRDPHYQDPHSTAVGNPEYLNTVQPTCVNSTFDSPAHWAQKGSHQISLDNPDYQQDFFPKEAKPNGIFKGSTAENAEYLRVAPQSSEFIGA
run_conditions: at 1 µM
# cutoff 10% applies to inhibition; >= gives true, < gives false

Examples from the recorded data:
{"smiles_structure": "CC(C)COC(=O)c1ccc2c(c1)/C(=C/Nc1ccc(S(N)(=O)=O)cc1)C(=O)N2", "category_label": "false"}
{"smiles_structure": "Clc1ccc(-c2nn3ncccc3c2-c2ccnc(Nc3ccccc3)n2)cc1", "category_label": "true"}

Ask: Kindly determine if inhibition recorded for `CCN(CC)S(=O)(=O)c1ccc(OC)c(Nc2ncc(-c3ccccc3)o2)c1` is above or exactly 10%.
Result: false

Ask: Kindly determine if inhibition recorded for `CCn1c(-c2nonc2N)nc2c(C#CC(C)(C)O)ncc(OC3CCNCC3)c21` is above or exactly 10%.
Result: false

Ask: Kindly determine if inhibition recorded for `NS(=O)(=O)c1ccc(Nc2ncc(-c3ccccc3)o2)cc1` is above or exactly 10%.
Result: false

Ask: Kindly determine if inhibition recorded for `COc1cc2c(cc1Nc1nc(Nc3ccsc3C(N)=O)c3cc[nH]c3n1)N(C(=O)CN(C)C)CCC2(C)C` is above or exactly 10%.
Result: true

Ask: Kindly determine if inhibition recorded for `O=S(=O)(CCNCc1ccc(-c2ccc3ncnc(Nc4ccc(OCc5cccc(F)c5)c(Cl)c4)c3c2)o1)c1ccccc1` is above or exactly 10%.
Result: true
